# experimental.target: Recombinant human FAP (Homo sapiens, UniProt Q12884)
# Construct: purchased R&D systems
# Sequence (Q12884 whole entry): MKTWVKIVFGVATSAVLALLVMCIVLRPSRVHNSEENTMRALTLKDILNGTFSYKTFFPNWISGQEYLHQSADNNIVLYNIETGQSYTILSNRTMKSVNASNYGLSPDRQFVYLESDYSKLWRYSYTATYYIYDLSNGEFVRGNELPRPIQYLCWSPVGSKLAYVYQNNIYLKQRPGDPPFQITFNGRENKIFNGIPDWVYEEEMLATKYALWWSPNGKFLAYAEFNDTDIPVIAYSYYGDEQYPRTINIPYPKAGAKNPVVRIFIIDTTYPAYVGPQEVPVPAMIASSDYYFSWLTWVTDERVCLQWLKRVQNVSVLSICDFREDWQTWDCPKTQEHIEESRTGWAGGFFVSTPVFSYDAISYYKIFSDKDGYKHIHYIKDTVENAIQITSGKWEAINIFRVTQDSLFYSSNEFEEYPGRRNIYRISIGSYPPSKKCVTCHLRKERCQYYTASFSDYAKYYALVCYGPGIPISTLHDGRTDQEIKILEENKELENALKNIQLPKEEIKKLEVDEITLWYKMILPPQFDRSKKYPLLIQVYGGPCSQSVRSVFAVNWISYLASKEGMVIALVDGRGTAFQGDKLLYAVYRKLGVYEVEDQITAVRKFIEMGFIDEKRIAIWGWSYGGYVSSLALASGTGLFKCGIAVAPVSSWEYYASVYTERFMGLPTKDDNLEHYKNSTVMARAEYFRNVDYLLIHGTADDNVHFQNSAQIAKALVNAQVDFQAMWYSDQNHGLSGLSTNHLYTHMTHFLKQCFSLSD
# test: FAP inhibition, fluorogenic substrate Z-Gly-Pro-AMC
# Assay type: biochemical
# experimental.parameters: recombinant human FAP, substrate Z-Gly-Pro-AMC
endpoint.label: pIC50
Conceptually, pIC50 converts a concentration in mol/L into minus its log10.

Entry N#C[C@@H]1C[C@H](F)CN1C(=O)CN1CCC(Nc2ccc(OC(F)(F)F)c3ncccc23)CC1 : reported pIC50 = ?
8.66

Follow-up item: CN(c1ccc2ncccc2c1)C1CCN(CC(=O)N2C[C@@H](F)C[C@H]2C#N)CC1
8.77

Follow-up item: N#Cc1ccc(N[C@H]2CCN(CC(=O)N3CCC[C@H]3C#N)C2)c2cccnc12
8.89

Follow-up item: N#C[C@@H]1C[C@H](F)CN1C(=O)CN1CC[C@H](Nc2ccc(OC(F)(F)F)c3ncccc23)C1
9.10

Follow-up item: Cc1ccc(N[C@H]2CCN(CC(=O)N3C[C@@H](F)C[C@H]3C#N)C2)c2cccnc12
8.92

Follow-up item: N#Cc1cnc2cccc(N[C@H]3CCN(CC(=O)N4C[C@@H](F)C[C@H]4C#N)C3)c2c1
9.05

Follow-up item: N#C[C@@H]1C[C@H](F)CN1C(=O)CN1CCC(Nc2ccc(OCc3ccccc3)c3ncccc23)CC1
8.26

Follow-up item: N#C[C@@H]1CCCN1C(=O)CN1CC[C@H](Nc2ccc(F)c3ncccc23)C1
8.66

* * *

# experimental.target: recombinant human DPP8 (Homo sapiens)
# Construct: purchased PBS Bioscience
# Sequence (Q6V1X1 whole entry): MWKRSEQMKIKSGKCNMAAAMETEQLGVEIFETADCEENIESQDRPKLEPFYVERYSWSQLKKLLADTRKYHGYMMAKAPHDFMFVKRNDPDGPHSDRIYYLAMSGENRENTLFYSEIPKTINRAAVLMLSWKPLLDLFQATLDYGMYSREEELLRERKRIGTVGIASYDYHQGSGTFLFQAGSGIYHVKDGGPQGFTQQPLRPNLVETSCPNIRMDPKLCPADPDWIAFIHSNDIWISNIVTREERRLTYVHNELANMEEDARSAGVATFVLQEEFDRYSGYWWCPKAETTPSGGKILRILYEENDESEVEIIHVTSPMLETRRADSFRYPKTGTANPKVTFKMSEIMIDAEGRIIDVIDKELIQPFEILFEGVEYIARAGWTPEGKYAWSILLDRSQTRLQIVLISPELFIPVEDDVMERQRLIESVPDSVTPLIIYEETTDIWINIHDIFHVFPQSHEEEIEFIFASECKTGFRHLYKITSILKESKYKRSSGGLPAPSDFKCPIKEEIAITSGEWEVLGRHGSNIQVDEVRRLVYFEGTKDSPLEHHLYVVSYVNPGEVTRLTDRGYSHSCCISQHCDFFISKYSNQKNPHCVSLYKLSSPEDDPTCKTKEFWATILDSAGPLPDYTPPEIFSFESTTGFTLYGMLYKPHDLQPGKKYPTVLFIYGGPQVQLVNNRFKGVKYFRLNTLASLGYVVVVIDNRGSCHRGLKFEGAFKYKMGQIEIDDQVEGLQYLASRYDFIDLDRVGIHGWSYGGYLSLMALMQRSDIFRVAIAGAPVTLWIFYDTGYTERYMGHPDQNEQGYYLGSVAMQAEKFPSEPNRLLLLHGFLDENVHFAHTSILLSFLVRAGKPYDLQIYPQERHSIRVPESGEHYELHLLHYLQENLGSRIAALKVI
# test: DPP8 inhibition, fluorogenic substrate Z-Ala-Pro-AMC
# Assay type: biochemical
# experimental.parameters: 25° C., Z-Ala-Pro-AMC substrate
endpoint.label: IC50 (µM)
I only need the number, in µM, no unit after it.

Could you share what IC50 was measured for CN(c1cccc2ncccc12)[C@H]1CCN(CC(=O)N2CCC[C@H]2C#N)C1 , tested on recombinant human DPP8 (Homo sapiens)?
85

Follow-up item: N#C[C@@H]1C[C@H](F)CN1C(=O)CN1CCC(Oc2ccnc3ccc(F)cc23)CC1
16.4

Follow-up item: COc1ccc2c(C(=O)N[C@H]3CCN(CC(=O)N4CCC[C@H]4C#N)C3)coc2c1
23.2

Follow-up item: COc1ccc(NC2CCN(CC(=O)N3CCC[C@H]3C#N)CC2)c2cccnc12
33.7

* * *

# experimental.target: recombinant human DPP7 (Homo sapiens, UniProt Q9UHL4)
# Construct: purchased R&D Systems
# test: DPP7 inhibition, fluorogenic substrate Lys-Pro-AMC
# Format: biochemical
# Method: The compounds according to the present technology were evaluated in terms of the inhibitory effect on the activity of dipeptidyl peptidases including FAP by using a substrate producing fluorescent substances upon enzymatic decomposition. […] Fluorescence intensity was measured using a microplate reader (Flexstation3, Molecular Devices) under the wavelength condition exciting at 380 nm and reading the emission at 460 nm. […]
Can you tell me log10 IC50 for the items I'm about to list?
// do not treat as linear: log10 of IC50, unit µM

Entry N#C[C@@H]1CCCN1C(=O)CN1CC[C@H](NC(=O)c2coc3c(F)cc(F)cc23)C1 : reported log10 IC50 = ?
0.52

Follow-up item: N#C[C@@H]1CC(F)(F)CN1C(=O)CN1CC[C@H](Nc2ccccc2-c2ccccc2)C1
-0.61

Follow-up item: N#C[C@@H]1CC(F)(F)CN1C(=O)CN1CC[C@H](Nc2cccc3ccoc23)C1
-1.02

Follow-up item: COc1cc2nccc(O[C@H]3CCN(CC(=O)N4CCC[C@H]4C#N)C3)c2cc1OC
-0.20

Follow-up item: N#C[C@@H]1CCCN1C(=O)CN1CC[C@@H](Nc2cnc3ccccc3c2)C1
0.21

Follow-up item: N#C[C@@H]1C[C@@H]2C[C@@H]2N1C(=O)CN1CCC(Nc2cccc3ncccc23)CC1
0.76

Follow-up item: N#C[C@@H]1CCCN1C(=O)CN1CC[C@H](NC(=O)c2coc3cc(O)ccc23)C1
0.64

src = patent US11655235B2
